protocol: DNDI: Cytotoxicity against L-6 rat myoblasts from skeletal muscle cells
conditions: L6 rat skeletal muscle myoblast cells, IC50
pIC50: −log10 of the molar value.
recorded.endpoint: pIC50

CCOC(=O)N1CCC(NC(c2ccc(Cl)cc2)c2cccnc2)CC1 (stereo not given) : < 4.00
O=C(NC1CCN(C(c2cncnc2)c2ccc(Cl)cc2F)CC1)c1cccc(F)c1F (stereo not given) : 4.12
NC(=O)c1cccc(C(O)(c2cccnc2)c2ccc(Cl)cc2F)c1 (stereo not given) : < 4.00

Given the molecule Cc1nc(C)c(C(=O)N2CCC(NC(c3ccc(C(F)(F)F)cc3)c3cccnc3)CC2)s1 (stereo not given) , what is its reported pIC50? < 4.00

Same question for N#Cc1ccc(C(c2cccnc2)N2CCC(NC(=O)c3ccccc3)CC2)cc1 (stereo not given) please. < 4.00

Same question for CC(C)S(=O)(=O)N1CCN(C(c2ccc(Cl)cc2)c2cccnc2)CC1 (stereo not given) please. < 4.00

Same question for O=C(c1ccccc1)N1CCN(C(c2cncnc2)c2ccc(Cl)cc2F)CC1 (stereo not given) please. < 4.00

----------
protocol: DNDI: Cytotoxicity against L-6 rat myoblasts from skeletal muscle cells
conditions: L6 rat skeletal muscle myoblast cells, IC50
pIC50: −log10 of the molar value.
Parameter pIC50: see the listing below.

Cc1cc(C(=O)NC2CCN(C(c3ccc(C#N)cc3)c3cccnc3)CC2)[nH]n1 (configuration not stated) : < 4.00
CON=C(c1ccc(Cl)cc1)C1(c2ccccc2C(=O)O)CC1 : < 4.00
N#Cc1ccnc(N2CCC(NC(c3ccc(C(F)(F)F)cc3)c3cccnc3)CC2)n1 (configuration not stated) : 4.30
CC(C)(C)C(=O)N1CCC(NC(c2ccc(C(F)(F)F)cc2)c2cccnc2)CC1 (configuration not stated) : < 4.00
Cc1nc(C(=O)NC2CCN(C(c3ccc(C#N)cc3)c3cccnc3)CC2)cs1 (configuration not stated) : < 4.00

Given the molecule O=S(=O)(c1ccccc1)N1CCC(NC(c2cnccn2)c2ccc(F)cc2F)CC1 (configuration not stated) , what is its reported pIC50? 4.14

Same question for CC(C)(C)C(=O)N1CCC(NC(c2ccc(C(F)(F)F)cc2)c2cncs2)CC1 (configuration not stated) please. < 4.00

Same question for CC(C)CC(=O)N1CCN(C(c2ccc(Cl)cc2)c2cccnc2)CC1 (configuration not stated) please. < 4.00

Same question for "CON=C(Cc1ccccc1)c1ccc(Cl)cc1" please. 4.15

Same question for O=C(Cc1ccccc1)N1CCC(NC(c2cnccn2)c2ccc(F)cc2F)CC1 (configuration not stated) please. < 4.00

Same question for CC(C)S(=O)(=O)NC(c1ccc(C(F)(F)F)cc1)c1cnccn1 (configuration not stated) please. < 4.00

Same question for Cc1cnc(N2CCC(NC(c3ccc(C(F)(F)F)cc3)c3cccnc3)CC2)s1 (configuration not stated) please. 4.22

----------
Parameter IC50: see the listing below.
Tested on: L6
protocol: DNDI: Cytotoxicity against L-6 rat myoblasts from skeletal muscle cells
conditions: L6 rat skeletal muscle myoblast cells
Record the value in µM, omitting the unit from your answer.

Some compounds with recorded IC50:
OC(c1ccc(Cl)cc1)(c1cccnc1)c1cccc(C(F)(F)F)c1 (configuration not stated) : 60.4
OC(c1ccc(Cl)cc1)(c1ccc(Cl)cc1)c1cncnc1 : 47.7
OC(c1ccc(Cl)cc1)(c1cccnc1)c1ccc(C(F)(F)F)cc1F (configuration not stated) : 57.4
COc1ccccc1N1CCN(C(c2cncnc2)c2ccc(Cl)cc2F)CC1 (configuration not stated) : 59.8
Cc1ccc(C(O)(c2ccc(OC(C)C)cc2)c2cccnc2)c(F)c1 (configuration not stated) : 62.6
Fc1cc(Cl)ccc1C(c1cncnc1)N1CCN(c2ccccc2)CC1 (configuration not stated) : 62.7
Fc1cc(Cl)ccc1C(NC1CCN(c2ccc(C(F)(F)F)cc2)CC1)c1cccnc1 (configuration not stated) : 52.4
N#CC(c1ccc(Cl)cc1)(c1cccnc1)c1ccccc1Cl (configuration not stated) : 56.8

# ---- query compound ----
Given the compound O=C(Nc1ccc(Cl)cc1)N1CCN(C(c2cncnc2)c2ccc(Cl)cc2F)CC1 (configuration not stated) , what is its reported IC50? 33.6
